system: HCT-116; test: NCI tumour cell line growth inhibition, 48 h
Activity calls are given as the source filed them. No stated cut-off is given here; in the data, active = GI50 up to about 1.1 µM and inactive = higher.
// allowed return values: y (active), n (inactive)

Identify the outcome logged in this assay for the molecule shown: COc1cccc(N(CN2C(=O)CCC2C(=O)O)C(C)=O)c1 (stereo unspecified)
n

Test call, this molecule: `CN(C)CCNC(=O)c1cccc2c1Oc1c(cccc1[N+](=O)[O-])O2`
y

How was COc1cc(C2SCC(=O)N2c2ccc(-c3ccc(-n4c(-c5ccccc5)nc5ccccc5c4=O)cc3)cc2)cc(OC)c1OC (stereo unspecified) classified in this test?
n

Which outcome did this test record for the molecule `CN1CCC2(CC1)SSC1(CCN(C)CC1)S2` ?
n

Identify the outcome logged in this assay for the molecule shown: C=C1C2CCC3C4(C)CCCC(C)(C(=O)O)C4CCC3(C2)C1OC(=O)/C(C)=C/C (stereo unspecified)
n

Please let me know the test result on file for `Nc1ccc(Oc2ccc(C34CC5CC6C3CC3CC4C(C5)C6(c4ccc(Oc5ccc(N)cc5)cc4)C3)cc2)cc1` .
n

Can you look up the reported call for `COI1NC(=O)c2ccccc21` for me?
n

Recorded test outcome, item `C1CC2=C(C1)[Se]C(=C1Sc3nsnc3S1)[Se]2`
n

Please share the test call associated with `O=C1C=Cc2c1csc2Br` .
n

Hey, what did the test say about `C#CCn1c(=O)ccn(/C(=C\C(=O)OCC)C(=O)OCC)c1=O` ?
n

So what was the verdict on CC1(CO)OC(n2cc(C(=O)NC(=O)OCc3ccccc3)c(=O)[nH]c2=O)CC1O (stereo unspecified) in this test?
n

* * *

tested on: A549; assay: NCI tumour cell line growth inhibition, 48 h
Activity calls are given as the source filed them. Cut-off read from the data, not from the text of the source: active = GI50 up to about 1.1 µM and inactive = higher.
Consider the following compounds; for each one, report its GI50.

Which GI50 value is on record for `Nc1ccc2nc(-c3cccc(C(F)(F)F)c3)cc(O)c2c1` ?
71.4 µM (inactive)

Need GI50 of OC(Cc1cccc2ccccc12)CN1CCC(c2ccccc2)CC1 (centres undefined) , thanks.
15.9 µM (inactive)

Return reported GI50; argument: `O=C(O)CNc1ncc2c(n1)-c1ccccc1OC2`
> 100 µM (inactive)

Fill in: GI50 of `O=c1[nH]c2ccccc2c2nc3ccccc3n12` is ___
33.2 µM (inactive)

* * *

tested on: HT-29; experiment: NCI tumour cell line growth inhibition, 48 h
Active and inactive are the calls of the source. No stated cut-off is given here; in the data, active = GI50 up to about 1.1 µM and inactive = higher.
// allowed return values: yes (1) (active), no (0) (inactive)

Dear colleague, could you share the recorded outcome for CC1(c2ccccc2)CC12C(=O)NC(=O)NC2=O (stereo not given) when you have a moment?
no (0)

How did this test come out for `CCOC(=O)/C(C#N)=C/c1ccc(SCc2ccco2)c([N+](=O)[O-])c1` ?
no (0)

Outcome logged for `CC1=C[C@H](O)[C@@]2(C)[C@@H]([C@@H]1C)[C@H]1CC[C@@H]3[C@@]4(C)CC[C@H](O)C(C)(C)[C@@H]4CC[C@@]3(C)[C@]1(C)C[C@@H]2O` in this assay:
no (0)

// return assay outcome for CC1OC(O[C@H]2CC[C@]3(C=O)[C@H]4CC[C@]5(C)[C@H](C6=CC(=O)OC6)CC[C@]5(O)[C@@H]4C=C[C@]3(O)C2)CC(O)C1O (stereo not given in full)
yes (1)

For this molecule, state the assay outcome: `CN(C)c1ccc2c(c1)C(=O)N(OS(=O)(=O)c1ccc([N+](=O)[O-])cc1)C2=O`
no (0)

Hi team, can someone confirm the assay call for O=C1CC(c2cccc(Cl)c2)n2cccc21 (stereo not given) ?
no (0)

Field: outcome | Entry: CC(=O)Nc1cc([As](=O)(O)O)ccc1O [ACETARSONE]
no (0)

Recorded test outcome, item `CC#CS(=O)(=O)c1ccccc1`
no (0)

Each molecule tested received a call. Report the one for `O=S(=O)(SCCCCSS(=O)(=O)c1ccc(Cl)cc1)c1ccc(Cl)cc1` .
no (0)

Please let me know the test result on file for O=NN(CCCl)C(=O)NC1CCCCC1 [LOMUSTINE] .
no (0)

* * *

tested on: SK-MEL-5; experiment: NCI tumour cell line growth inhibition, 48 h
Active and inactive are the calls of the source. Rule as the data show it: active = GI50 up to about 1.1 µM and inactive = higher.
Bench note: report the call from Y = active, N = inactive

What classification did `Cc1cc(NS(=O)(=O)c2ccc(Nc3c4ccccc4nc4c(C(=O)Nc5ccc(S(=O)(=O)N=C(N)N)cc5)ccc(Cl)c34)cc2)no1` end up with in this test?
N

Please share the test call associated with COC(=O)c1cc(NC2OCC(OC(C)=O)C(OC(C)=O)C2OC(C)=O)nc(SC)c1C(=O)OC (stereo not drawn) .
N

I would be grateful if you could indicate the recorded call for COc1cccc2c1C(=O)c1c(O)c3c(c(O)c1C2=O)C[C@@](O)(C(=O)CO)C[C@@H]3OC1CC(N2CCOCC2)C(O)C(C)O1 (stereo partly drawn) .
Y

Tell me the assay call for O=C1CC2CCC(C1)[S+]2[O-] (stereo not drawn) please.
N

Identify the outcome logged in this assay for the compound shown: COc1cc(CCCOC2OC(COC3OCC(O)C(O)C3O)C(O)C(O)C2O)cc2cc(-c3ccc4c(c3)OCO4)oc12 (stereo not drawn)
N

Could you please tell me the result logged for c1ccc(COC[C@H]2O[C@@H](c3ccccc3)C[C@@H](OCc3ccccc3)C2OCc2ccccc2)cc1 (stereo partly drawn) in this assay?
N

What call does the record list for COc1ccc(Cc2c(-c3ccc(C)cc3)n[nH]c(=O)c2C2C(=O)N(c3ccccc3)N=C2c2ccccc2)cc1 (stereo not drawn) ?
N

Recorded test outcome, item `CCOc1c2c(cc3c1C(=O)c1c(OC)cccc1C3=O)C=C(OC)CC2`
N

* * *

test system: HOP-92; experiment: NCI tumour cell line growth inhibition, 48 h
Activity calls are given as the source filed them. No stated cut-off is given here; in the data, active = GI50 up to about 1.1 µM and inactive = higher.
recorded_endpoint: GI50

So what does the record say about GI50 for `O=C(/C=C/c1ccccc1)N1CCCCC1` ?
> 100 µM (inactive)

Name the reported GI50 value associated with the molecule `Cc1cc2c(cc1Cl)SC(NNCCO)=NS2(=O)=O`
> 100 µM (inactive)

GET /values?readout=GI50&item= `CN(C)CCNC(=O)c1cccc2ccc(-c3ccc(O)cc3)nc12`
3.03 µM (inactive)

Look at this molecule and give its reported GI50. OC(Cc1cccc2ccccc12)CN1CCC(c2ccccc2)CC1 (configuration not stated)
12.4 µM (inactive)

Would you mind telling me what GI50 value was observed for `CC1=C(C)[C@@]2(C)O[C@@]2(C)O[C@@]2(C)O[C@@]12C` ?
> 100 µM (inactive)

What value of measured GI50 is listed for `Cc1cc(C)nc(NS(=O)(=O)c2ccc(Nc3c4ccccc4nc4c(C(=O)N5CCN(CCOS(C)(=O)=O)CC5)cccc34)cc2)n1` ?
> 100 µM (inactive)

Request the reported GI50 associated with CCCCc1ccc(Nc2nc(Cl)c3c(ncn3C3CC(Oc4ccc(C)cc4)C(COc4ccc(C)cc4)O3)n2)cc1 (configuration not stated)
> 100 µM (inactive)

GI50 lookup needed for `O=c1oc2ccc(Cl)cc2cc1-c1cn2ccsc2n1` , thanks.
12.4 µM (inactive)

So what's the measured GI50 for this one? `CCc1cccc(C(C)(C)C)c1NC(=S)N/C=C(/C#N)C(N)=O`
14 µM (inactive)

Can you share its GI50? I mean this molecule: `COc1ccc(-c2nnc(CCCCCCCCc3nnc(-c4ccc(OC)cc4)n3N)n2N)cc1`
> 39.3 µM (inactive)

Consider the molecule `O=c1c2sc3nc(NCCN4CCCCC4)ncc3c2ncn1-c1ccccc1` and give its measured GI50.
27.3 µM (inactive)

GET /values?readout=GI50&item= `COc1ccc(OC)c(NC(=O)CCC/C(CC(=O)c2ccc(O)c(OC)c2)=N\NC(=O)C[N+](C)(C)C)c1`
> 100 µM (inactive)

I have this molecule here, O=C1N/C(=N/N=C/C(O)C(O)C(O)CO)N/C1=C\c1c[nH]c2ccccc12 (configuration not stated) , and I need its recorded GI50.
> 100 µM (inactive)

Which measured GI50 value corresponds to `COC(=O)[C@@H]1C=C[C@H](NC(C)=O)C1` ?
> 100 µM (inactive)

Would you mind telling me what GI50 value was observed for `COC(=O)c1ccccc1/N=C(/NC1CCCCCC1)NS(=O)(=O)c1ccc(C)cc1` ?
89.7 µM (inactive)

What value of GI50 has been reported for the following molecule? `O=c1[nH]nc(-c2ccccc2)c2[nH]c3c4ccccc4ccc3c12`
20.3 µM (inactive)

Which GI50 value belongs to Cc1cc(C23OC4COC(C)(C)OC4C2OC(C)(C)O3)nc2ccccc12 (configuration not stated) ?
> 100 µM (inactive)

For the molecule `CC(C)NC(=O)CN1CCN(C2=C(Cl)C(=O)c3c(O)ccc(O)c3C2=O)CC1` , what GI50 is on record?
2.24 µM (inactive)

Quick check: GI50 of COC(=O)C1(CCC(C)=O)CCCCCC1=O (configuration not stated) ?
> 100 µM (inactive)

Fill in: GI50 of `Cc1cc(C)cc(Sc2c([N+](=O)[O-])ncn2C)c1` is ___
17.2 µM (inactive)

Looking for the measured GI50 of O=C1/C(=C/c2ccc3c(c2)OCO3)SC2C=Nc3ccccc3N12 (configuration not stated) , can you help?
> 100 µM (inactive)

# input molecule: `Cc1ccc(/N=N/NCCCCN)cc1` ; wanted: its GI50
> 100 µM (inactive)

Provenance of the data: ChEMBL document CHEMBL1201862
